Each item that follows carries a reported IC50.
# Test Target: 15-PGDH/HPGD (Homo sapiens (Human))
# Sequence (P15428 whole entry): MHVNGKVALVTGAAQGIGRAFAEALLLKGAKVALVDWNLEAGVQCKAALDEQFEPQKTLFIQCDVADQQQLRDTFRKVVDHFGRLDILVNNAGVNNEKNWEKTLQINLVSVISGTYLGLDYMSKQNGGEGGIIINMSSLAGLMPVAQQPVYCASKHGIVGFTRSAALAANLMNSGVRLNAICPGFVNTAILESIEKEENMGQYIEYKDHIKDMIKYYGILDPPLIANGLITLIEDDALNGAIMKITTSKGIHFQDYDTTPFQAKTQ
# Test: hPGDH inhibitor screening biochemical assay
# Test Parameters: read-out: hPGDH: Average IC50

# count of solved cases: 8
compound=O=C(O)c1ccc(-n2ccc3cc(C(=O)N4CCC(F)(F)CC4)cnc32)nc1 result="< 100 nM"
compound=CC(C)(C)NC(=O)c1cncc(-n2ccc3cc(C(=O)N4CCC(F)(F)CC4)cnc32)c1 result="< 100 nM"
compound=COc1ccc(-n2c(NC(C)=O)nc3cc(C(=O)N4CCC(F)CC4)cnc32)cc1 result="≥ 1000 nM"
compound=COc1ccc(-n2ccc3cc(C(=O)N4CCC(C(F)(F)F)CC4)cnc32)cc1 result="100 to 1000 nM"
compound=CCOc1ccc(-n2cnc3cc(C(=O)N4CCCCC4)cnc32)cc1 result="< 100 nM"
compound=COc1ccc(-n2c(C)nc3cc(C(=O)N4CCC(F)CC4)ccc32)cc1 result="< 100 nM"
compound=O=C(c1cnc2c(c1)c(Cl)cn2-c1cncnc1)N1CCC(F)CC1 result="< 100 nM"
compound=CCNC(=O)c1ccc(-n2ccc3cc(C(=O)N4CCC(F)(F)CC4)cnc32)nc1 result="< 100 nM"

Reported IC50 ( N#Cc1ccc(-n2ccc3cc(C(=S)N4CCC(F)(F)CC4)cnc32)cc1 ) = ≥ 1000 nM

Reported IC50 ( O=C(c1cnc2c(c1)ncn2-c1ccc(F)cc1)N1CCCCC1 ) = < 100 nM

Reported IC50 ( Nc1cc(-n2ccc3cc(C(=O)N4CCCCC4)cnc32)ccn1 ) = < 100 nM

Reported IC50 ( N#Cc1ccc(-n2ccc3cc(C(=O)N4CCC(F)(F)CC4)cnc32)cc1O ) = < 100 nM

Reported IC50 ( O=C(c1cnc2c(ccn2-c2cccc(C(=O)N3CC[S+]([O-])C3)c2)c1)N1CCC(F)(F)CC1 (stereo not drawn) ) = < 100 nM

Reported IC50 ( CC(C)(O)CNC(=O)c1cc(Cl)cc(-n2ccc3cc(C(=O)N4CCC(F)(F)CC4)cnc32)c1 ) = < 100 nM

Reported IC50 ( COc1ccc(-n2cnc3cc(C(=O)N4CCCCC4)cnc32)cc1 ) = < 100 nM
